# assay-system: GST-PLK2 (Homo sapiens, UniProt Q9NYY3)
# Construct: purchased CarnaBio
# Sequence (Q9NYY3 whole entry): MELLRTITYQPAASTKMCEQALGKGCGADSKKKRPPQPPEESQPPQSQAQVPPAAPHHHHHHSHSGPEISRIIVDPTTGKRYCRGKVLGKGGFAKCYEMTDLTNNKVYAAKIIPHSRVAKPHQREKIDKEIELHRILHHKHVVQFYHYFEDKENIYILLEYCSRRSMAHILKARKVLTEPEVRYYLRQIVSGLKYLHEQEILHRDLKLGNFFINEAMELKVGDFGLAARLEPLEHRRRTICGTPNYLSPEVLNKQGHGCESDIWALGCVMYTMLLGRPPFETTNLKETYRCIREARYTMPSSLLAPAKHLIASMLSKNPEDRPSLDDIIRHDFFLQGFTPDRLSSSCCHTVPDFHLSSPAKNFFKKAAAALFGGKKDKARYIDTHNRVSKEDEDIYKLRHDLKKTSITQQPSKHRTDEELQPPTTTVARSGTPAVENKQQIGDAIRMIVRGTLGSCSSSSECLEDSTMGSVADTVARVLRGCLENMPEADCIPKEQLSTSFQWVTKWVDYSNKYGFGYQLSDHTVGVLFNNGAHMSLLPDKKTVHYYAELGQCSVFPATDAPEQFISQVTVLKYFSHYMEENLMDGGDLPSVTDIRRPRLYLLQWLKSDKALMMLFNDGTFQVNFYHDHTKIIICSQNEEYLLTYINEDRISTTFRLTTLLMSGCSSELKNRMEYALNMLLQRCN
# assay-name: PLK TR-FRET peptide assay, PLK2
# Format: biochemical
# condition-summary: comparison of resolved enantiomers; used to assign absolute configuration
measured-property: PLK2 activity relative to the opposite enantiomer / other isomer

Here is how some molecules turned out for PLK2 activity relative to the opposite enantiomer / other isomer.
CC[C@@]12COCCN1c1nc(-c3ccncc3-c3ccccc3)ncc1N(C)C2=O | more active compound
CC[C@@H]1C(=O)N(C)c2cnc(-n3ccnc3-c3ccccc3)nc2N1c1cnn(C)c1 | more active compound
CC[C@@]12COCCN1c1nc(-c3snnc3-c3ccc(F)cc3F)ncc1N(C)C2=O | more active compound
CC[C@@]12COCCN1c1nc(-c3cn[nH]c3-c3nccs3)ncc1N(C)C2=O | more active compound
CC[C@@]12COCCN1c1nc(-n3ccnc3-c3ccccc3)ncc1NC2=O | more active compound
CC[C@@]12COCCN1c1nc(-c3cn[nH]c3-c3ccc(F)cc3F)ncc1N(C)C2=O | more active compound

GET /values?readout=PLK2 activity relative to the opposite enantiomer / other isomer&item= CC[C@@]12CN(C)CCN1c1nc(-n3ccnc3-c3ccccc3)ncc1N(C)C2=O
more active compound

Repeat for the following molecule: CC[C@@]12COCCN1c1nc(-n3ccnc3-c3ccc(F)cc3F)ncc1N(C)C2=O
more active compound

====

pIC50: −log10 of the molar value.
Listed here: compounds with reported pIC50 for UniProtKB P53350.
Sequence (P53350 whole entry): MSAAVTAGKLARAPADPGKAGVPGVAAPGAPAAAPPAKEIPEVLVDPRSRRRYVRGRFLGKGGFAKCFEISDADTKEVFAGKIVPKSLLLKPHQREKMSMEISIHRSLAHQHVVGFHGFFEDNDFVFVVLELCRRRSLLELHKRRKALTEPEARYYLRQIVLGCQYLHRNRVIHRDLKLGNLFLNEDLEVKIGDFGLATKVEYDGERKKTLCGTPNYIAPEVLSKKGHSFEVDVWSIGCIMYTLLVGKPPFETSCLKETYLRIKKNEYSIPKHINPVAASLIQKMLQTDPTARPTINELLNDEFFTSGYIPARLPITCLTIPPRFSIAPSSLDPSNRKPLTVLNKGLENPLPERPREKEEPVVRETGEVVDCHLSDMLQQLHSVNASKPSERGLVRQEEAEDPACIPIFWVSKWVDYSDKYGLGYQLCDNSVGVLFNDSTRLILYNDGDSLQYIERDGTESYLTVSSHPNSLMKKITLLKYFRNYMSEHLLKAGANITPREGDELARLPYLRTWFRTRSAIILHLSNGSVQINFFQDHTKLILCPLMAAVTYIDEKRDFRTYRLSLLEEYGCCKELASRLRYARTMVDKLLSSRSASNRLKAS

Solved cases (7 shown):
CC[C@@H]1C(=O)N(C)c2cnc(-n3ccnc3Br)nc2N1C1CCCC1 | > 6.00
CC[C@@]12CCCN1c1nc(-n3ncnc3-c3ccccc3)ncc1N(C)C2=O | 5.00 to 6.00
CC[C@@H]1C(=O)N(C)c2cnc(-n3ccnc3-c3ccncc3)nc2N1C1CC1 | < 4.30
CC[C@@H]1C(=O)N(C)c2cnc(-n3ncnc3-c3ccccc3)nc2N1C1CCCC1 | > 6.00
CC[C@@]12COCCN1c1nc(-c3cccnc3-c3ccccc3)ncc1N(C)C2=O | 4.30 to 5.00
CC[C@@H]1C(=O)N(C)c2cnc(-n3ncnc3-c3ccccc3)nc2N1C(C)C | > 6.00
CC[C@@H]1C(=O)N(C)c2cnc(-n3ccnc3-c3ccncc3)nc2N1C1CCC1 | 5.00 to 6.00

Kindly consider the entry below.
Dear colleague, I am looking for the recorded pIC50 of the following compound: CC[C@@H]1C(=O)N(C)c2cnc(-n3cnc(C)c3)nc2N1C1CCCC1
> 6.00

====

# assay-system: GST-PLK3 (Homo sapiens)
# Construct: purchased CarnaBio
# Sequence (Q9H4B4 whole entry): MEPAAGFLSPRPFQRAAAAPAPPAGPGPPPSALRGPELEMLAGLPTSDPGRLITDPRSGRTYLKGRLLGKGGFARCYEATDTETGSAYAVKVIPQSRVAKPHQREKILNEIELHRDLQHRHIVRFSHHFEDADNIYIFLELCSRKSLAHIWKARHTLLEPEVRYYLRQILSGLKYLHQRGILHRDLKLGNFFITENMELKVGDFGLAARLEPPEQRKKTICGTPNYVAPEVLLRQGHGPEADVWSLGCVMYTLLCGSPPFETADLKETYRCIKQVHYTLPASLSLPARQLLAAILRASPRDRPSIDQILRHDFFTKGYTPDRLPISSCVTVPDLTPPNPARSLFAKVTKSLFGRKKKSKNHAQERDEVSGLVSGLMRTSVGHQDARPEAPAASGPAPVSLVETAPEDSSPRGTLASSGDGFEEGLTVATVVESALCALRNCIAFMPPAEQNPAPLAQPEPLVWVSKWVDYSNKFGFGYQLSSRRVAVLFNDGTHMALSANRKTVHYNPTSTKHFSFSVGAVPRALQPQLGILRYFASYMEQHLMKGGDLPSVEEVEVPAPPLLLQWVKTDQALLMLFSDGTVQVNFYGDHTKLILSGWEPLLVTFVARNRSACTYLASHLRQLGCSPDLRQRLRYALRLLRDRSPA
# assay-name: PLK TR-FRET peptide assay, PLK3
# Assay type: biochemical
# condition-summary: PLK TR-FRET peptide assay, GST-PLK3; read-out: Plk3 IC50
measured-property: IC50

Solved cases below.
CC[C@@H]1C(=O)N(C)c2cnc(-n3cnc(C(N)=O)c3)nc2N1C1CCCC1 | 1 to 10 µM
CC[C@@H]1C(=O)N(C)c2cnc(-n3ccnc3)nc2N1C1CCCC1 | 10 to 50 µM
CC[C@@]12CN(C)CCN1c1nc(-n3ccnc3-c3ccccc3)ncc1N(C)C2=O | 10 to 50 µM

Turning now to a further compound:
Lab note: need IC50 for CCOC(=O)c1cnn(-c2ncc3c(n2)N(C2CCCC2)[C@H](CC)C(=O)N3C)c1 on GST-PLK3 (Homo sapiens), anyone have it?
10 to 50 µM
